tested on: Human papillomavirus type 1a protein E7 (residues 44-93); test: HPV1a E7 fragment binders on microarrays, primary screen, biochemical, small-molecule microarray, residues 44-93, 635 nm fluorescence (AID 1108); conditions: small-molecule microarray binding, fluorescence 635 nm; higher = more signal;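 further: E7 fragment applied at 1 µg/mL in TBST for 1 h at 4 C; score combines spot fluorescence with its signal to noise ratio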
Each entry falls into one class according to its composite z-score; the ranges are lower bin: < 0.08; middle bin: ≥ 0.08 and < 1; upper bin: ≥ 1

C=CC[C@]12N=C(c3ccc(OCCCO)cc3)O[C@H]1c1ccccc1N(CCC)C2=O | middle bin
C=CCOC(=O)[C@@H]1[C@H]2C(=O)O[C@H](c3ccccc3)[C@H](c3ccccc3)N2[C@H](c2ccc(OCCOC(=O)[C@@H]3C[C@@H]4C(=O)N[C@@H](CC(C)C)C(=O)N4[C@@H]3c3ccc(O)cc3)cc2)[C@@]12C(=O)Nc1ccc(I)cc12 | upper bin
CC(C)C[C@@H]1NC(=O)[C@H]2C[C@@H](C(=O)O)[C@@H](c3cccc(OCCO)c3)N2C1=O | lower bin
CN1C(=O)C2C(C1=O)C1C=C(CCCO)C2C(C2CC2)N1C (centres undefined) | lower bin
O=C1N(Cc2ccccc2)c2ccccc2C[C@@]12N=C(c1ccc(OCCCO)cc1)O[C@H]2c1ccccc1 | upper bin
O=C1O[C@H](c2ccccc2)[C@H](c2ccccc2)N2[C@H]1[C@@H](C(=O)Nc1nc3ccccc3s1)[C@]1(C(=O)Nc3ccccc31)[C@H]2c1ccccc1OCCO | upper bin
O=C1OCCC/C=C\[C@H]2OC34C=CCN(Cc5ccccc5)C(=O)[C@H]3N(CCO)C(=O)[C@@H]4C12 (some centres undefined) | lower bin
Cc1ccc(S[C@]2(C(=O)NC3CC3)CC(=O)N(C3Cc4ccccc4C3)[C@@H]2c2ccc(CO)cc2I)cc1 | middle bin
CC1CC/C=C\[C@H]2OC34C=CCN(CCN5CCOCC5)C(=O)[C@H]3N(C(CO)C(C)C)C(=O)[C@@H]4C2C(=O)O1 (some centres undefined) | lower bin
COC(=O)C1=CC(CCCO)=CC(c2ccc(CN3CCCC3)cc2)N(C)C=C1C(=O)OC (centres undefined) | upper bin
COCCOC(=O)N1C(=O)[C@@]2(c3cc(C#CCC(C(=O)OC)C(=O)OC)ccc31)[C@H](c1ccc(O)cc1)N1[C@H](c3ccccc3)[C@H](c3ccccc3)OC(=O)[C@H]1[C@@H]2C(=O)N1CCc2cc(OC)c(OC)cc2C1 | middle bin
CC(C)C[C@@H]1NC(=O)[C@@H]2C[C@H](C(=O)NCCCCCNC(=O)CS)[C@H](c3ccc(O)cc3)N2C1=O | upper bin
CC(C)c1ccc(NN2C(C(O)c3ccccc3)C=CC3C(=O)N(c4ccccc4)C(=O)C32)cc1 (centres undefined) | upper bin

---

Consider the following compounds and their measured composite z-score readings.
target: Epidermal growth factor receptor (Homo sapiens); assay: EGFR binders on small-molecule microarrays, primary screen, biochemical, small-molecule microarray, 635 nm fluorescence (AID 1104); conditions: EGFR binding, higher = more signal;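 further: score merges 667 nm emission intensity with spot signal to noise over triplicate slides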
RESULT TYPE: composite z-score

OCCCc1cc[n+](Cc2cc3c(cc2Br)OCO3)cc1 | -1.15
CCOC(=O)C[C@H]1[C@H](OC(=O)c2ccc(-c3ccccc3)cc2)[C@@H](NC(=O)c2ccc(-c3ccccc3)cc2)c2cc(OCCCO)ccc2N1C(=O)c1ccccc1 | 0.101
CC(C)(C)OC(=O)CC[C@]1(C(=O)N2CCOCC2)COC(c2ccc(OCCCO)cc2)=N1 | 0.727
COC(=O)[C@@]1(Cc2ccc(F)cc2)[C@H]2c3cc(C(=O)N(C)C)n(Cc4ccsc4Br)c3C[C@H]2CN1C(=O)c1ccccc1 | 1.51
Cc1cccc([C@H]2C[C@H]3C(Br)=C[C@@]2(CO)C(=O)[C@]32CO2)c1 | -0.0766
COc1cc(CO)cc(I)c1O[C@H]1C=C(C(=O)NCCO)C[C@@H](N(CCN2CCOCC2)C(=O)C2CCCO2)[C@@H]1O (stereo partly drawn) | 0.488
C=C(CCCC)C(=O)CC[C@@H](OC(C)=O)c1ccc(OCCO)cc1 | -0.678
C=CC[C@]1(C(=O)NCCN2CCOCC2)N=C(c2ccc(OCCCO)cc2)O[C@H]1c1ccccc1 | -0.0911
